SYSTEM: DPP-4 (manufactured by Sigma, derived from porcine kidney) (Sus scrofa)
Construct: derived from porcine kidney; purchased Sigma; host or cells: porcine kidney (tissue-derived)
Sequence (P22411 whole entry): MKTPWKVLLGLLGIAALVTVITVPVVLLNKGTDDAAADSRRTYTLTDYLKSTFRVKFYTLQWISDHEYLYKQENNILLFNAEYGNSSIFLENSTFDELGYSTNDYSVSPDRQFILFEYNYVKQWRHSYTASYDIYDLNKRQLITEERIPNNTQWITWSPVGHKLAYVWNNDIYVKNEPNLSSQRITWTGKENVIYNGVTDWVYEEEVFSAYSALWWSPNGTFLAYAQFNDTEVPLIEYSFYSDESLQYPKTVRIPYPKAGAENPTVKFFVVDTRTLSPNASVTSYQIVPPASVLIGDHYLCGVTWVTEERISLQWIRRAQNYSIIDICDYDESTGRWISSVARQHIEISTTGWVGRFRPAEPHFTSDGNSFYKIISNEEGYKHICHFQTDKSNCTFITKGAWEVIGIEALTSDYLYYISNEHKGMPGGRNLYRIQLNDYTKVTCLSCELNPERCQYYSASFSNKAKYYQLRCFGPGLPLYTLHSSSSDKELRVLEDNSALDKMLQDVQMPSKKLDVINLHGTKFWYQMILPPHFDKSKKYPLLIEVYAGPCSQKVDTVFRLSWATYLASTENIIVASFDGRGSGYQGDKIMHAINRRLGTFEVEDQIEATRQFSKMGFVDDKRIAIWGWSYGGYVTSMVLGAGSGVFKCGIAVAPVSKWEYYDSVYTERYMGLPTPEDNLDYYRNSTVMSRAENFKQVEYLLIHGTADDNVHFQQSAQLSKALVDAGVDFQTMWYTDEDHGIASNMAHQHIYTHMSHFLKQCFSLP
ASSAY_PROCEDURE: DPP-4 inhibition rate and IC50 measurement, fluorescence of AMC freed from Gly-Pro-MCA
Assay type: biochemical
MEASUREMENT_SETUP: Table 2; sample concentration changed between 0.001 and 7.2 μmol/ml; read-out: IC50 value
pIC50: −log10 of the molar value. Square brackets hold non-standard residues; d marks the D form. Peptide text beside a SMILES is read from it. Hyp = O=C(O)[C@@H]1C[C@@H](O)CN1
ATTRIBUTE_MEASURED: pIC50

1) C[C@H](N)C(=O)N1C[C@H](O)C[C@H]1C(=O)NCC(=O)O [Example 25, Ala-Hyp-Gly] (H-Ala-[Hyp]-Gly-OH; N-terminus and C-terminus assumed)    2.02
2) CC[C@H](C)[C@H](N)C(=O)N1C[C@H](O)C[C@H]1C(=O)NCC(=O)O [Example 22, Ile-Hyp-Gly] (H-Ile-[Hyp]-Gly-OH; N-terminus and C-terminus assumed)    3.30
3) CC(C)C[C@H](N)C(=O)N1C[C@H](O)C[C@H]1C(=O)NCC(=O)O [Example 21, Leu-Hyp-Gly] (H-Leu-[Hyp]-Gly-OH)    3.89
4) CC(C)C[C@H](N)C(=O)N1CCC[C@H]1C(=O)O [Example 16, Leu-Pro] (H-Leu-Pro-OH; N-terminus and C-terminus assumed)    3.96
5) O=C(O)CNC(=O)[C@@H]1C[C@@H](O)CN1C(=O)[C@@H]1CCCN1 [Example 24, Pro-Hyp-Gly] (H-Pro-[Hyp]-Gly-OH; N-terminus and C-terminus assumed)    2.33
6) CC(C)C[C@H](N)C(=O)N1C[C@H](O)C[C@H]1C(=O)NCC(=O)N1CCC[C@H]1C(=O)N[C@@H](C)C(=O)O [Example 23, Leu-Hyp-Gly-Pro-Ala] (H-L[Hyp]GPA-OH)    3.08
